Cited source for all entries: ChEMBL document CHEMBL2375313

System: UACC-62
Assay notes: Cytotoxicity against human UACC62 cells assessed as growth inhibition at 10 uM after 48 hrs by sulphorhodamine B assay
Type: functional
Measurement context: UACC-62, 48 h, read-out: GI
Lab note: anything with inhibition of growth at 10 µM at or over 20% counts as Yes; the rest go in No.

[[record]]
compound = "CC1CCCc2c1nc1[nH]c(=O)nc(N)c1c2-c1ccc(Cl)cc1 (stereo not given)"
label_value = "Yes"

[[record]]
compound = "COc1ccc(-c2c3c(nc4nc[nH]c(=O)c24)C(C)CCC3)cc1 (stereo not given)"
label_value = "No"

[[record]]
compound = "COc1ccc(-c2c3c(nc4ncnc(N)c24)C(C)CCC3)cc1 (stereo not given)"
label_value = "Yes"

[[record]]
compound = "CC1CCCc2c1nc1[nH]c(=S)n(-c3ccccc3)c(=N)c1c2-c1ccc(Cl)cc1 (stereo not given)"
label_value = "Yes"

[[record]]
compound = "CC1CCCc2c1nc1nc(SCC(=O)c3ccccc3)nc(N)c1c2-c1ccc(Cl)cc1 (stereo not given)"
label_value = "Yes"

[[record]]
compound = "COc1ccc(-c2c3c(nc4ncn(N)c(=N)c24)C(C)CCC3)cc1 (stereo not given)"
label_value = "Yes"

[[record]]
compound = "CC1CCCc2c1nc(N)c(C#N)c2-c1ccc(Cl)cc1 (stereo not given)"
label_value = "Yes"

[[record]]
compound = "CCSc1nc(N)c2c(-c3ccc(Cl)cc3)c3c(nc2n1)C(C)CCC3 (stereo not given)"
label_value = "Yes"

[[record]]
compound = "CCSc1nc(N)c2c(-c3ccc(OC)cc3)c3c(nc2n1)C(C)CCC3 (stereo not given)"
label_value = "Yes"

[[record]]
compound = "CC1CCCc2c1nc1ncnc(N)c1c2-c1ccc(Cl)cc1 (stereo not given)"
label_value = "No"

[[record]]
compound = "COc1ccc(-c2c3c(nc4nc(C)[nH]c(=O)c24)C(C)CCC3)cc1 (stereo not given)"
label_value = "No"

[[record]]
compound = "COc1ccc(-c2c3c(nc4ncn5ncnc5c24)C(C)CCC3)cc1 (stereo not given)"
label_value = "No"

[[record]]
compound = "CC1CCCc2c1nc(NC(=S)NC(=O)c1ccccc1)c(C#N)c2-c1ccc(Cl)cc1 (stereo not given)"
label_value = "Yes"

[[record]]
compound = "CC1CCCc2c1nc1[nH]c(=S)nc(N)c1c2-c1ccc(Cl)cc1 (stereo not given)"
label_value = "No"

